procedure_details: Gastrointestinal absorption of peptides (FAD)V, intestinal vs intravenous antidiuretic effect
reported_conditions: rat, intestinal administration via tube 10 cm distal of pylorus; antidiuretic effect AUC vs intravenous
Numbered stars: 1 amine (or outer) side, 2 acyl side, 3 side chain; on linkers, the order of the positions; unused ones are H or OH. Bridge positions count the residues as written; N and C are the ends. Square brackets hold non-standard residues; d marks the D form. Peptide text beside a SMILES is read from it. Hyp = O=C(O)[C@@H]1C[C@@H](O)CN1; 2Thi = N[C@@H](Cc1cccs1)C(=O)O; d2Thi = N[C@H](Cc1cccs1)C(=O)O; Iva = CC[C@](C)(N)C(=O)O; X1 = O=C(CCC[*:2])[*:1]
property_label: (FAD)V (gastrointestinal absorption) (%)
Give bare numbers, in %.

Past entries and their recorded results:
compound	unit	(FAD)V (gastrointestinal absorption)
CC(C)[C@@H]1NC(=O)[C@H](Cc2cccs2)NC(=O)[C@@H](Cc2ccccc2)NC(=O)CCCSC[C@@H](C(=O)N2C[C@H](O)C[C@H]2C(=O)N[C@H](CCCNC(=N)N)C(=O)NCC(N)=O)NC(=O)[C@H](CC(N)=O)NC1=O [Ex. 2] ([dF][2Thi]VNC[Hyp][dR]G-NH2; linker N-5 via X1)	%	1.2
CC(C)[C@@H]1NC(=O)[C@H](Cc2ccccc2)NC(=O)[C@@H](Cc2ccc(O)cc2)NC(=O)CCCSC[C@@H](C(=O)N2CCC[C@H]2C(=O)N[C@H](CCCNC(=N)N)C(=O)NCC(N)=O)NC(=O)[C@H](CC(N)=O)NC1=O [Ex. 3, reference compound] ([dY]FVNCP[dR]G-NH2; linker N-5 via X1)	%	0.4
CC[C@]1(C)NC(=O)[C@H](Cc2cccs2)NC(=O)[C@@H](Cc2ccc(O)cc2)NC(=O)CCCSC[C@@H](C(=O)N2C[C@H](O)C[C@H]2C(=O)N[C@H](CCCNC(=N)N)C(=O)NCC(N)=O)NC(=O)[C@H](CC(N)=O)NC1=O [Ex. 5] ([dY][2Thi][Iva]NC[Hyp][dR]G-NH2; linker N-5 via X1)	%	1.4
CSCC[C@@H]1NC(=O)[C@@H](Cc2cccs2)NC(=O)CCCSC[C@@H](C(=O)N2C[C@H](O)C[C@H]2C(=O)N[C@H](CCCNC(=N)N)C(=O)NCC(N)=O)NC(=O)[C@H](CC(N)=O)NC(=O)[C@H](C(C)C)NC1=O [Ex. 6] ([d2Thi]MVNC[Hyp][dR]G-NH2; linker N-5 via X1)	%	1.6
CC[C@]1(C)NC(=O)[C@H](Cc2cccs2)NC(=O)[C@@H](Cc2cccs2)NC(=O)CCCSC[C@@H](C(=O)N2C[C@H](O)C[C@H]2C(=O)N[C@H](CCCNC(=N)N)C(=O)NCC(N)=O)NC(=O)[C@H](CC(N)=O)NC1=O [Ex. 4] ([d2Thi][2Thi][Iva]NC[Hyp][dR]G-NH2; linker N-5 via X1)	%	2.5

Specify (FAD)V (gastrointestinal absorption) for CC[C@]1(C)NC(=O)[C@H](Cc2cccs2)NC(=O)[C@@H](Cc2ccccc2)NC(=O)CCCSC[C@@H](C(=O)N2C[C@H](O)C[C@H]2C(=O)N[C@H](CCCNC(=N)N)C(=O)NCC(N)=O)NC(=O)[C@H](CC(N)=O)NC1=O [Ex. 1] ([dF][2Thi][Iva]NC[Hyp][dR]G-NH2; linker N-5 via X1) and stop.
1.3
